Test system: Plasmodium falciparum
protocol_notes: Antimalarial activity against Plasmodium falciparum K1 infected in human type A+ erythrocytes incubated for 24 hrs followed by [G-3H]-hypoxanthine incorporation and measured after 18 hrs by liquid scintillation counting method
Format: functional, organism-based
experimental_endpoint: IC50

smiles_code=CC(=O)OC[C@]12CCC(=O)C(C)(C)[C@@H]1CCC1=C2CC[C@]2(C)[C@@H]([C@H](C)[C@@H]3CC=C(C)C(=O)O3)CC[C@@]12C endpoint_result="> 20 µM"
smiles_code=CC(=O)O[C@@H]1C[C@H]([C@H](C)[C@@H]2CC=C(C)C(=O)O2)[C@@]2(C)C[C@H](O)C3=C(CC[C@@H]4C(=C3)C=CC(=O)OC4(C)C)[C@]12C endpoint_result="> 19 µM"
smiles_code=CC1=C[C@H](O)[C@@H]([C@@H](C)[C@H]2C[C@@H](O)[C@@]3(C)C4=C(C=C5C=CC(=O)OC(C)(C)[C@@H]5CC4)CC[C@]23C)OC1=O endpoint_result="> 20 µM"

====

System: Plasmodium falciparum
protocol_notes: Antimalarial activity against Plasmodium falciparum K1 infected in human type A+ erythrocytes incubated for 24 hrs followed by [G-3H]-hypoxanthine incorporation and measured after 18 hrs by liquid scintillation counting method
Type: functional, organism-based
List of IC50 values.
experimental_endpoint: IC50

smiles_code=CC1=CC[C@@]2(OC1=O)O[C@H]1O[C@H]3C[C@@]14[C@H](CC[C@@]4(C)C1=C3C=C3C=CC(=O)OC(C)(C)[C@@H]3CC1)[C@@H]2C system="Plasmodium falciparum" experimental_endpoint=IC50 endpoint_result="> 20 µM"
smiles_code=CC1=CC[C@@H]([C@@H](C)[C@H]2C[C@@H](O)[C@@]3(C)C4=C(C=C5C=CC(=O)O[C@@]5(C(C)(C)O)CC4)CC[C@]23C)OC1=O system="Plasmodium falciparum" experimental_endpoint=IC50 endpoint_result="> 20 µM"
smiles_code=CC1=C[C@H](O)[C@@H]([C@@H](C)[C@H]2CC[C@@]3(C)C4=C(CC[C@]23C)[C@@]2(C)CC[C@H](O)C(C)(C)[C@@H]2CC4)OC1=O system="Plasmodium falciparum" experimental_endpoint=IC50 endpoint_result="> 21 µM"
smiles_code=CC(=O)O[C@@H]1C[C@H]([C@H](C)[C@H]2OC(=O)C(C)=C[C@@H]2O)[C@@]2(C)CC(=O)C3=C(CC[C@@H]4C(=C3)C=CC(=O)OC4(C)C)[C@]12C system="Plasmodium falciparum" experimental_endpoint=IC50 endpoint_result="> 18 µM"
